target: hPTP1B1–400 (Homo sapiens, UniProt P18031); construct: h PTP1B 1–400 IC 50 (μM ± S.D); made in house; assay: PTP1B inhibition, pNPP hydrolysis, long form; type: biochemical; details: pNPP substrate, 15 min 37 °C, pH 6.8; ± S.D
Sequence (P18031 1-400): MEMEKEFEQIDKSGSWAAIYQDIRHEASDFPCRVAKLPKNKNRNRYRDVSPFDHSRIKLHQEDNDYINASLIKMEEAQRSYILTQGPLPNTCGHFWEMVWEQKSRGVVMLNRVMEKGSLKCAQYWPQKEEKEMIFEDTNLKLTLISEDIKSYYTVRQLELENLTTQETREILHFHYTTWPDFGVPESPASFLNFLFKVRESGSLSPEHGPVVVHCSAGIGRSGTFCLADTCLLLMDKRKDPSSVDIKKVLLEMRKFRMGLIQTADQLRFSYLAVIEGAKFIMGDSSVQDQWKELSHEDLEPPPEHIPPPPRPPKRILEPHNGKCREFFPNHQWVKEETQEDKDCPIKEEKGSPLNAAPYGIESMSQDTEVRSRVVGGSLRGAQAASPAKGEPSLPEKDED
Hi! Just check whether IC50 is below 2 µM. Below gives True, equal or above gives False.

[
  {
    "molecule": "CC1(C)c2[nH]c3ccc(OC(F)F)cc3c2C[C@]2(C)[C@H]3C(=O)C=C4[C@@H]5C[C@@](C)(C(=O)O)CC[C@]5(C)CC[C@@]4(C)[C@]3(C)CC[C@@H]12",
    "assigned.category": "True"
  },
  {
    "molecule": "CC1(C)c2c(cnn2-c2ccc(S(N)(=O)=O)cc2)C[C@]2(C)[C@H]3C(=O)C=C4[C@@H]5C[C@@](C)(C(=O)O)CC[C@]5(C)CC[C@@]4(C)[C@]3(C)CC[C@@H]12",
    "assigned.category": "True"
  },
  {
    "molecule": "CC1(C)c2c(cnn2-c2ccc(C#N)cc2)C[C@]2(C)[C@H]3C(=O)C=C4[C@@H]5C[C@@](C)(C(=O)O)CC[C@]5(C)CC[C@@]4(C)[C@]3(C)CC[C@@H]12",
    "assigned.category": "False"
  }
]

query: In the record for `CC1(C)c2[nH]c3ccc(C(=O)O)cc3c2C[C@]2(C)[C@H]3C(=O)C=C4[C@@H]5C[C@@](C)(C(=O)O)CC[C@]5(C)CC[C@@]4(C)[C@]3(C)CC[C@@H]12` , is IC50 less than 2 µM?
result: False

query: Determine if `CC1(C)c2c(cnn2-c2ccc(OC(F)F)cc2)C[C@]2(C)[C@H]3C(=O)C=C4[C@@H]5C[C@@](C)(C(=O)O)CC[C@]5(C)CC[C@@]4(C)[C@]3(C)CC[C@@H]12` shows IC50 strictly lower than 2 µM.
result: False

query: Find out if reported IC50 for `CC1(C)c2c(cnn2-c2ccc(C(N)=O)cc2)C[C@]2(C)[C@H]3C(=O)C=C4[C@@H]5C[C@@](C)(C(=O)O)CC[C@]5(C)CC[C@@]4(C)[C@]3(C)CC[C@@H]12` is less than 2 µM
result: False

query: Is IC50 strictly under 2 µM for the entry Cc1ccc(-n2ncc3c2C(C)(C)[C@@H]2CC[C@]4(C)[C@H](C(=O)C=C5[C@@H]6C[C@@](C)(C(=O)O)CC[C@]6(C)CC[C@]54C)[C@@]2(C)C3)cc1 [FC-122, reference compound] ?
result: False

query: Is the reported IC50 for `CC1(C)c2c(cnn2-c2ccc(SC(F)(F)F)cc2)C[C@]2(C)[C@H]3C(=O)C=C4[C@@H]5C[C@@](C)(C(=O)O)CC[C@]5(C)CC[C@@]4(C)[C@]3(C)CC[C@@H]12` strictly below 2 µM?
result: False

query: Dear colleague, could you confirm whether IC50 of `CC1(C)c2[nH]c3ccc(SC(F)(F)F)cc3c2C[C@]2(C)[C@H]3C(=O)C=C4[C@@H]5C[C@@](C)(C(=O)O)CC[C@]5(C)CC[C@@]4(C)[C@]3(C)CC[C@@H]12` falls below 2 µM? Thanks.
result: False

query: Is 2 µM strictly greater than the molecule's reported IC50? molecule: `CC1(C)c2[nH]c3ccc(C#N)cc3c2C[C@]2(C)[C@H]3C(=O)C=C4[C@@H]5C[C@@](C)(C(=O)O)CC[C@]5(C)CC[C@@]4(C)[C@]3(C)CC[C@@H]12`
result: False

query: Strictly below 2 µM: is that where IC50 of `CC1(C)c2[nH]c3ccc(OC(F)(F)F)cc3c2C[C@]2(C)[C@H]3C(=O)C=C4[C@@H]5C[C@@](C)(C(=O)O)CC[C@]5(C)CC[C@@]4(C)[C@]3(C)CC[C@@H]12` sits?
result: False

query: Hello, I'm reviewing records and need to know if IC50 of `CC1(C)c2[nH]c3ccc(S(N)(=O)=O)cc3c2C[C@]2(C)[C@H]3C(=O)C=C4[C@@H]5C[C@@](C)(C(=O)O)CC[C@]5(C)CC[C@@]4(C)[C@]3(C)CC[C@@H]12` is below 2 µM. Could you check?
result: False
